TESTED SYSTEM: T1, recombinant extracellular domain (ECD) of human TF, amino acid 1-219 of the mature chain, C-terminal His6-tag (human, UniProt P13726 33-251)
T1 construct: expressed in a mammalian system; used for ELISA and Biacore; biotinylated by NHS-ester for the Fab ELISA; also called His6-TF-ECD1-219; HumanTF1-219
EXPERIMENT: TF-ECD binding ELISA, chemiluminescent
In this section we review reported EC50 values for a set of binders.
Quick reminder: number only, in µg/mL, skip the unit.

Using the record for M61 (antibody, V domains shown, complete MAb; FR4 is its own entry; also called H22/L5) VH: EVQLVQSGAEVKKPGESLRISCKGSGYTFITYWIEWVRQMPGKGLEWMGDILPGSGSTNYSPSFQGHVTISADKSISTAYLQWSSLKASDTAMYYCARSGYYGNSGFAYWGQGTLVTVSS VL: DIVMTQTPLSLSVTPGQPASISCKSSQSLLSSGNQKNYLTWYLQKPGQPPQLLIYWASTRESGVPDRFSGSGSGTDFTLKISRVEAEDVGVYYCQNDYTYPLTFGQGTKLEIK , report its EC50. 0.0083

Using the record for M12 (antibody, V domains shown, complete MAb; FR4 is its own entry; also called H15/L5) VH: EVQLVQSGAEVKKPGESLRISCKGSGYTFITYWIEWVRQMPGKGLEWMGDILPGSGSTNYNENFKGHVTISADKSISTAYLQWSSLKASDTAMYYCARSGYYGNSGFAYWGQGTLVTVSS VL: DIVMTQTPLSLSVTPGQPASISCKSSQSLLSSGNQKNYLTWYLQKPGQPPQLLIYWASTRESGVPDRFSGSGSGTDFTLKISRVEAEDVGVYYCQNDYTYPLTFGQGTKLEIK , report its EC50. 0.01

Using the record for M1, 10H10 mouse-human chimera (antibody, V domains shown, also called H13/L1; parent chimeric antibody) VH: QVHLQQSGAELMKPGASVKISCKASGYTFITYWIEWVKQRPGHGLEWIGDILPGSGSTNYNENFKGKATFTADSSSNTAYMQLSSLTSEDSAVYYCARSGYYGNSGFAYWGQGTLVTVSA VL: DIVMTQSPSSLTVTAGEKVTMSCKSSQSLLSSGNQKNYLTWYQQIPGQPPKLLIYWASTRESGVPDRFTGSGSGTDFTLTINSVQAEDLAVYYCQNDYTYPLTFGAGTKLELK , report its EC50. 0.0117

***
Using the record for M16 (antibody, V domains shown, complete MAb; FR4 is its own entry; also called H16/L2) VH: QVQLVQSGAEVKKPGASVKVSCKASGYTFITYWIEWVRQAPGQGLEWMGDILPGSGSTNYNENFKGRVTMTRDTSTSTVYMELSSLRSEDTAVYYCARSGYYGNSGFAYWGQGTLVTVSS VL: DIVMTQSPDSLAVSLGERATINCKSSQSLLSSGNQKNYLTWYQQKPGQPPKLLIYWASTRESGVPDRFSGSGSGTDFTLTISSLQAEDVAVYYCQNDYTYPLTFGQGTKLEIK , report its EC50. 0.00931

Using the record for M10 (antibody, V domains shown, complete MAb; FR4 is its own entry; also called H15/L3) VH: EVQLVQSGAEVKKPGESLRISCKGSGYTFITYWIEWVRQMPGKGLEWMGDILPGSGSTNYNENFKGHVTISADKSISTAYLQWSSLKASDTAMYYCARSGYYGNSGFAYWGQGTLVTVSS VL: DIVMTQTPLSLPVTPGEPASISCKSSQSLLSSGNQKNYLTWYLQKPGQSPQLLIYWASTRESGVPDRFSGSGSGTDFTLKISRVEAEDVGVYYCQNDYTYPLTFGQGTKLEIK , report its EC50. 0.0105
